Would you kindly list growth for each of these compounds?
- Test system: SN12C renal
- test_details: NCI-60 one-dose screen, 48 h (100 = growth as untreated, 0 = no growth, -100 = all killed)
- applied_conditions: 10 µM unless noted
About 83,000 compounds went through this panel and 20% of them were active in at least one assay; those are over-represented in the sample as a whole.
Number only, in %; omit the unit.

So, "Cn1ccc2c3c(ccc21)CC3=O" ? Its growth was 106

So, "O=C(CSc1nc2ccc([N+](=O)[O-])cc2[nH]1)Nc1cccc(C(F)(F)F)c1" ? Its growth was 9.37

So, "CN[C@]12CC3(C=CC(=O)C=C3)O[C@@]1(Cc1ccc(OC)cc1)N(C)C(=O)N2" ? Its growth was 4.44

So, CSc1nnc(-c2cnn3c2NC(c2ccccc2)C3)n1-c1ccc(C(F)(F)F)cc1 (stereo unspecified) ? Its growth was 78.5

So, "O=C(Cn1cc(CN2CCCCCC2)nn1)Nc1ccc2c(ccn2Cc2ccccc2)c1" ? Its growth was 101

So, "O=C1c2cccnc2C(=O)c2c1c(C(=O)NCCCN1CCCCC1)c1ccccn21" ? Its growth was -65.1

So, "Cc1cccc2c1NC(=O)C2(c1ccc(O)cc1)c1ccc(O)cc1" ? Its growth was 11.2

So, "Cc1cc2c(O)c(-c3cc(Cl)ccc3Cl)c3sc(=O)oc3c2cc1C" ? Its growth was 66.9

So, "O=C1N[C@@H]2NC(=[N+]3CCOCC3)N[C@@H]2N1" ? Its growth was 97.8

So, O=S(=O)(Nc1ccccc1)c1ccc(C2CC3(Cl)C(Cl)=C(Cl)C2(Cl)C3(Cl)Cl)cc1 (stereo unspecified) ? Its growth was -18.5

So, "COc1cc(-n2cc(-c3cc(O)c(C/C=C(\C)CCC=C(C)C)c(O)c3)nn2)cc2c1O[C@]1(C)CC[C@@H](O)C(C)(C)[C@H]1C2" ? Its growth was 24.9

So, "Brc1ccc2[nH]cc(-c3nonc3-c3c[nH]c4ccccc34)c2c1" ? Its growth was 57.1

So, "Nc1nc2c([nH]1)c1[nH]c3ccccc3c1c1[nH]c3ccccc3c21" ? Its growth was 75.6

So, "N=C(N)c1ccc(-c2ccc(-c3cc(Cl)cc(Cl)c3)o2)o1" ? Its growth was -67.6

So, CC(C)N1CN2C(=S)NC3C2N(C1)C(=S)N3C (stereo unspecified) ? Its growth was 97.6

So, "Cc1ccc(-c2cc(-c3ccc(Cl)cc3)nc(NC(=O)c3cccnc3)n2)cc1" ? Its growth was 103

So, "COc1ccc(-c2csc(N(C(=O)N3CCN(c4cc5c(cc4F)c(=O)c(C(=O)O)cn5C4CC4)CC3)c3ccccc3)n2)cc1" ? Its growth was 6.41

So, "COc1ccc(-c2nc(/C=C3\SC(=NCc4ccccc4)NC3=O)c3ccccn23)cc1" ? Its growth was -19.7

So, "CC(C)(C)c1cc(-c2nc3ccc(N4CCN(S(C)(=O)=O)CC4)cc3[nH]2)cc(C(C)(C)C)c1O" ? Its growth was 97.7

So, "CCCCNc1ccc(C#N)c(OCCN(CC)CC)c1" ? Its growth was 105

So, "C#CCOc1ccc2ncnc(Nc3cccc(NC(=O)C=C)c3)c2c1" ? Its growth was 65.3

So, "c1ccc(C2=NN[C@H](c3cn(-c4ccccc4)nc3-c3ccccc3)C2)cc1" ? Its growth was 46.6

So, "COc1cc(C(=O)n2nc(N3CCN(C)CC3)c3cc(N)ccc32)cc(OC)c1OC" ? Its growth was 39.6

So, "O=C1/C(=C/c2ccc(F)cc2)COc2ccc(O)cc21" ? Its growth was 78.4

So, CCO/C=N/C1=C(C#N)C(c2ccc(OC)cc2)c2sc3c(F)cccc3c2O1 (stereo unspecified) ? Its growth was 39.6

So, "CN1CCN(c2ccc(C(=O)Nc3cccc(C#Cc4cccc5[nH]nc(N)c45)c3)cc2C(F)(F)F)CC1" ? Its growth was 3.37

So, "CCOC(=O)c1cnc2ccccc2c1Cl" ? Its growth was 102

So, "Cn1c(O)c(C=NCCN=Cc2c(O)n(C)c(=O)n(C)c2=O)c(=O)n(C)c1=O" ? Its growth was 95.6

So, "O=C(NCc1ccccc1)Nc1ccccc1CNc1nc(Nc2ccc(OCCN3CCCC3)cc2)ncc1Cl" ? Its growth was 101

So, "CN(CCn1sc(=O)n(Cc2ccccc2)c1=O)Cc1ccc2c(Cl)cc(Cl)c(O)c2n1" ? Its growth was 34.7

So, "O=C(OCc1ccc2cccc(O)c2n1)N1CCN(C(=O)c2cc3cc(F)ccc3[nH]2)CC1" ? Its growth was -90.8
